- target-desc: T1, EsCas13d, nuclease-dead (Eubacterium siraeum, UniProt B0MS50, R295A;H300A;R849A;H854A)
- T1 sequence: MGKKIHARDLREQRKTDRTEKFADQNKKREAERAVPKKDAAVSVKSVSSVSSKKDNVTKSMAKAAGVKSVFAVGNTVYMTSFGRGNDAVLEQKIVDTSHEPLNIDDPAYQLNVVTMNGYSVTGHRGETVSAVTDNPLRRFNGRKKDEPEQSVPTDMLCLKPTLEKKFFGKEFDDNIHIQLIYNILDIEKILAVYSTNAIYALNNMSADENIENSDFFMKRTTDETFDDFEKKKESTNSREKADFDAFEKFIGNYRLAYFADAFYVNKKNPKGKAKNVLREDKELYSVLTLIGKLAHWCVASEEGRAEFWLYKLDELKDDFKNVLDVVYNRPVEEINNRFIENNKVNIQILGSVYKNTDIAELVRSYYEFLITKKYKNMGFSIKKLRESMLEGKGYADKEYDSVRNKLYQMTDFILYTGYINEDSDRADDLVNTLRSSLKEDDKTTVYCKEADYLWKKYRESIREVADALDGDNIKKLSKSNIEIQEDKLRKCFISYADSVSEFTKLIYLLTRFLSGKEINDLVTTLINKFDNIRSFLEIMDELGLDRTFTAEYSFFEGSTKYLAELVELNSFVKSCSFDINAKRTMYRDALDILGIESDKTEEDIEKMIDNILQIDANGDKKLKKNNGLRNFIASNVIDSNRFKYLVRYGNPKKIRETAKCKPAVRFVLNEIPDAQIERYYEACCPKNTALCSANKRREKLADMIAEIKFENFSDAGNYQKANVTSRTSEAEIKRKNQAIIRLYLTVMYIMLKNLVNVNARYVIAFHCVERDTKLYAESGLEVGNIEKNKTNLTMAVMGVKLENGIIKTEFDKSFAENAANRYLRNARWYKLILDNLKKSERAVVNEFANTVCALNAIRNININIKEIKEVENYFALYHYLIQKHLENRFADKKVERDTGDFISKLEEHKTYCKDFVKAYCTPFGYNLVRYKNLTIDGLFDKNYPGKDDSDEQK
- method-description: crRNA (strand 1, pre-loaded); Mg2+; 40 mM Tris-HCl pH 7.5, 150 mM NaCl, 6 mM MgCl2, 1 mM DTT, 0.1% Tween-20, 0.2 mg/ml BSA; 25 C; 10 min per concentration, then washed
- recorded-conditions: tags: His6-TwinStrep-SUMO cleaved; N-terminal SNAP kept (SNAP-Surface 488); label: 3' end held by stalled T7 RNA polymerase
Categories are assigned from the measured Kd using these intervals: class A (below 0.03 µM), class B (0.03 µM to below 0.04 µM), class C (0.04 µM or more)

binder	label
target 2 MT 5'PFS CUG 3'PFS CCA (mixed) RNA 1: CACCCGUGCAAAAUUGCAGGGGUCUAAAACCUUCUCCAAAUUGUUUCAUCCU RNA 2: GGGAAUGGAUCCACAUCUACGAAUUCCUGAGGAUGAAACAAUUUGGAGAAGCCAAGAUCGGAAGAGCACACGU	class A

Query string: Bin this entry: target 2 MT 5'PFS AUU 3'PFS UGC (mixed) RNA 1: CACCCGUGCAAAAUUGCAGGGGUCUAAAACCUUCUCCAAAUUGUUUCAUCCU RNA 2: GGGAAUGGAUCCACAUCUACGAAUUCAUUAGGAUGAAACAAUUUGGAGAAGUGCAGAUCGGAAGAGCACACGU
Result string: class A
